- Tested on: hERG
- ASSAY INFO: Selectivity index, ratio of IC50 for inhibition of hERG fluorescence polarization assay to MIC for antimicrobial activity against multidrug-resisitant Staphylococcus aureus assessed as reduction in bacterial growth
- Format: toxicity
- CONDITION NOTES: human; read-out: Selectivity Index
Give selectivity ratio for every item shown.

Prompt: Requested field: selectivity ratio. Item: `COc1ccc2nccc(OC[C@@H]3CC[C@@H](NC(=O)c4cc(F)c(Br)c(F)c4)CO3)c2n1`
Completion: ≥ 492

Prompt: Requested field: selectivity ratio. Item: `COc1ccc2nccc(OC[C@@H]3CC[C@@H](NC(=O)c4ccc(I)c(F)c4)CO3)c2n1`
Completion: ≥ 520

Prompt: Endpoint output: selectivity ratio of `COc1ccc2nccc(OC[C@H]3CC[C@H](NC(=O)c4cc(F)c(Br)c(F)c4)CC3)c2n1` . Value?
Completion: ≥ 0.119

Prompt: # get_value(readout='selectivity ratio', item= `COc1ccc2nccc(OC[C@H]3CC[C@H](NC(=O)c4cc(F)c(Cl)c(F)c4)CC3)c2n1` )
Completion: ≥ 0.108

----------
For each record, write down the corresponding selectivity ratio.
- Test system: hERG
- ASSAY INFO: Selectivity index, ratio of IC50 for inhibition of hERG fluorescence polarization assay to MIC for antimicrobial activity against Staphylococcus aureus ATCC 29213 assessed as reduction in bacterial growth
- Type: toxicity
- CONDITION NOTES: human; read-out: Selectivity Index

Prompt: Returns the measured selectivity ratio for the input molecule. Input: `COc1ccc2nccc(OC[C@@H]3CC[C@@H](NC(=O)c4ccc(I)c(F)c4)CO3)c2n1`
Completion: ≥ 520

Prompt: Fill in the blank: the reported selectivity ratio of `COc1ccc2nccc(OC[C@@H]3CC[C@@H](NC(=O)c4cc(F)c(Cl)c(F)c4)CO3)c2n1` is ____.
Completion: ≥ 224

Prompt: Form field: reported selectivity ratio of `COc1ccc2nccc(OC[C@H]3CC[C@H](NC(=O)c4cc(F)c(Cl)c(F)c4)CC3)c2n1`
Completion: ≥ 0.108

Prompt: Form field: reported selectivity ratio of `COc1ccc2nccc(OC[C@@H]3CC[C@@H](NC(=O)c4cc(F)c(Br)c(F)c4)CO3)c2n1`
Completion: ≥ 953

----------
- Test system: Escherichia coli
- ASSAY INFO: Antimicrobial activity against Escherichia coli ATCC 25922 assessed as reduction in bacterial growth incubated for 20 hrs by broth microdilution analysis
- Type: functional
Sorting guide: entries reporting MIC beneath 30 µM go in the true pile, the rest go in the false pile.

Prompt: Say whether its MIC is strictly beneath 30 µM. Entry: COc1ccc2nccc(C(O)C[C@H]3CC[C@H](NCc4cc(F)c(Br)c(F)c4)CC3)c2n1 (some centres not stated)
Completion: true

Prompt: Threshold test, MIC < 30 µM: `COc1ccc2nccc(OC[C@@H]3CC[C@@H](NC(=O)c4cc(F)c(Br)c(F)c4)CO3)c2n1`
Completion: false

Prompt: Strictly below 30 µM: is that where MIC of `COc1ccc2nccc(OC[C@@H]3CC[C@@H](NCc4cc(F)c(Br)c(F)c4)CO3)c2n1` sits?
Completion: false

Prompt: Does `COc1ccc2nccc(OC[C@@H]3CC[C@@H](NC(=O)c4cc(F)c(Cl)c(F)c4)CO3)c2n1` have MIC strictly under 30 µM?
Completion: false

Prompt: Lab log: compare recorded MIC with 30 µM; is it strictly lower for `COc1ccc2nccc(CCN3CCC(NC(=O)c4ccc(I)c(F)c4)CC3)c2n1` ?
Completion: false

Prompt: Strictly below 30 µM: is that where MIC of `O=c1ccc2ncc(=O)n3c2n1C[C@H]3CN1CCC(NCc2cc3c(cn2)OCCC3)CC1` sits?
Completion: true

Prompt: Strictly below 30 µM: is that where MIC of `COc1ccc2nccc(OC[C@H]3CC[C@H](NC(=O)c4cc(F)c(Br)c(F)c4)CC3)c2n1` sits?
Completion: false

----------
- Test system: Staphylococcus aureus
- ASSAY INFO: Antimicrobial activity against multidrug-resistant Staphylococcus aureus assessed as reduction in bacterial growth incubated for 20 hrs by broth microdilution analysis
- Type: functional
PROPERTY MEASURED: MIC

Prompt: Request - read-out MIC | tested on Staphylococcus aureus | compound `COc1ccc2nccc(OC[C@H]3CC[C@H](NC(=O)c4cc(F)c(Br)c(F)c4)CC3)c2n1`
Completion: > 64.8 µM

Prompt: State its MIC on Staphylococcus aureus: `COc1ccc2nccc(OC[C@H]3CC[C@H](NC(=O)c4ccc(I)c(F)c4)CC3)c2n1`
Completion: > 239 µM

Prompt: What MIC appears in the records for this compound with Staphylococcus aureus? `COc1ccc2nccc(OC[C@H]3CC[C@H](NC(=O)c4cc(F)c(Cl)c(F)c4)CC3)c2n1`
Completion: > 277 µM

----------
Provide the recorded selectivity ratio for the entries that follow.
- Tested on: hERG
- ASSAY INFO: Selectivity index, ratio of IC50 for inhibition of hERG fluorescence polarization assay to MIC for antimicrobial activity against multidrug-resisitant Staphylococcus aureus assessed as reduction in bacterial growth
- Type: toxicity
- CONDITION NOTES: human; read-out: Selectivity Index

Prompt: Returns the measured selectivity ratio for the input compound. Input: COc1ccc2nccc(C(O)C[C@H]3CC[C@H](NCc4cc(F)c(Br)c(F)c4)CC3)c2n1 (stereo partly drawn)
Completion: ≥ 131

Prompt: GET /values?readout=selectivity ratio&item= `COc1ccc2nccc(OC[C@H]3CC[C@H](NC(=O)c4ccc(I)c(F)c4)CC3)c2n1`
Completion: ≥ 0.125

Prompt: Need selectivity ratio of `COc1ccc2nccc(OC[C@@H]3CC[C@@H](NC(=O)c4cc(F)c(Cl)c(F)c4)CO3)c2n1` , thanks.
Completion: ≥ 224

----------
- ASSAY INFO: Inhibition of Escherichia coli DNA topoisomerase 4 relaxation activity measured for 30 mins
pIC50: −log10 of the molar value.
PROPERTY MEASURED: pIC50

Prompt: Return reported pIC50; argument: `COc1ccc2nccc(OC[C@H]3CC[C@H](NC(=O)c4cc(F)c(Cl)c(F)c4)CC3)c2n1`
Completion: < 4.00

Prompt: Entry under review: `COc1ccc2nccc(OC[C@H]3CC[C@H](NC(=O)c4cc(F)c(Br)c(F)c4)CC3)c2n1` . Reported pIC50?
Completion: < 4.00

Prompt: Can you look up the measured pIC50 of `COc1ccc2nccc(OC[C@H]3CC[C@H](NC(=O)c4ccc(I)c(F)c4)CC3)c2n1` for me?
Completion: < 4.00

----------
- ASSAY TARGET: Topoisomerase IV (Staphylococcus aureus, UniProt P0C1S7+P0C1U9)
- Sequence (P0C1U9 whole entry): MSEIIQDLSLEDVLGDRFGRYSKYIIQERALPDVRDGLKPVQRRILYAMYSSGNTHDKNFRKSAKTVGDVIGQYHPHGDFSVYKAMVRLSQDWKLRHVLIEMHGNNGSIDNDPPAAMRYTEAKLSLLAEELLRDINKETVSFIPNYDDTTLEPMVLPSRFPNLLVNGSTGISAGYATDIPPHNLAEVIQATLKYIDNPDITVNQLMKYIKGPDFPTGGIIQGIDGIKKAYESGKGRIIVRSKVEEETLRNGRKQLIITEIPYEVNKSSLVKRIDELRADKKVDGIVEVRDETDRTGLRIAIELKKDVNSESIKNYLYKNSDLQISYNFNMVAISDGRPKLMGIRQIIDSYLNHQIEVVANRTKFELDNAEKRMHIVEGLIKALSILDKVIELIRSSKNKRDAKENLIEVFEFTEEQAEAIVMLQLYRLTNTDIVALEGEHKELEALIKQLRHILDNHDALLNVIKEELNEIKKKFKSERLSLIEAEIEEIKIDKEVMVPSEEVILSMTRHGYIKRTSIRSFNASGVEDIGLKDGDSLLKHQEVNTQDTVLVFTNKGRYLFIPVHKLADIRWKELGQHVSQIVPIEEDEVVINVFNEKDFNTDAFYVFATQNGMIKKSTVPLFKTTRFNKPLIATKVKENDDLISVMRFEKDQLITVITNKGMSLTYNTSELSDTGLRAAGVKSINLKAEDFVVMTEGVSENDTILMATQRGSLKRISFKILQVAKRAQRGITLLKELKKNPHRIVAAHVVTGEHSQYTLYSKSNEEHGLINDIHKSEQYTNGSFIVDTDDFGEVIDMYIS
- Sequence (P0C1S7 whole entry): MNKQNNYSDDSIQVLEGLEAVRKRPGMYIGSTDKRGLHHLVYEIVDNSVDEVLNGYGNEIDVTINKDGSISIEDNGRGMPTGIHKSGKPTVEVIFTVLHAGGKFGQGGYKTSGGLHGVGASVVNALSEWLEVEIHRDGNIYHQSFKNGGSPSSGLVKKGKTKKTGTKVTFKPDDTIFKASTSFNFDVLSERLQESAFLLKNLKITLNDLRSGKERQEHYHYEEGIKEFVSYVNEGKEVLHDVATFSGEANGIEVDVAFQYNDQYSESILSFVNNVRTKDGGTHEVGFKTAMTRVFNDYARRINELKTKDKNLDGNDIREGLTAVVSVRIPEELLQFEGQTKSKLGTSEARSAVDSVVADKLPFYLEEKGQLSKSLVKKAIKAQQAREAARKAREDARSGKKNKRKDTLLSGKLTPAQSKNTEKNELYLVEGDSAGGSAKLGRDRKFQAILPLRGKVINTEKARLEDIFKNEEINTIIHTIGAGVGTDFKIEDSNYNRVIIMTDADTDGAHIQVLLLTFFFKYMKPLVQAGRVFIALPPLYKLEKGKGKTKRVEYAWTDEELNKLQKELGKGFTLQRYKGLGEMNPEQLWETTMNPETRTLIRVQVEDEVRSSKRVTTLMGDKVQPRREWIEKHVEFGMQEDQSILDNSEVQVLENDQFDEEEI
- ASSAY INFO: Inhibition of Staphylococcus aureus DNA topoisomerase 4 relaxation activity measured for 30 mins
Exercise: for every item that follows, state its recorded IC50.
Numbers only; they are read as nM.

Prompt: Which IC50 reading was recorded for the compound `COc1ccc2nccc(OC[C@@H]3CC[C@@H](NC(=O)c4cc(F)c(Cl)c(F)c4)CO3)c2n1` ?
Completion: 579

Prompt: Which IC50 is reported for this compound? `COc1ccc2nccc(CCN3CCC(NC(=O)c4ccc(I)c(F)c4)CC3)c2n1`
Completion: 261

Prompt: # input compound: `COc1ccc2nccc(OC[C@@H]3CC[C@@H](NC(=O)c4ccc(I)c(F)c4)CO3)c2n1` ; wanted: its IC50
Completion: 783
